Data provenance is the supplement of paper PMC10037445.

- System: RAW-Dual
- Test method notes: NF-kB SEAP reporter activity, fold change vs agonist alone; cytotoxicity flag (confluency mask): cytotoxic (confluency <70% of control); higher = enhanced NF-kB activity
- Details: agonist: Pam3CSK4 (TLR2/1) 0.1 ug/mL
Over roughly 2,900 compounds, “NF-kB SEAP reporter activity, fold change vs agonist alone” has its median near 0.99; the highest 2% begin near 2.6. Many of the other results were omitted from the sample, so the highest values are more common in it than they were.
Classification field: true = NF-kB SEAP reporter activity at or over 0.9; false = NF-kB SEAP reporter activity under 0.9.

Example cases with answers are listed next.
{"columns": ["Molecule", "Assigned category"],
 "data": [
  ["CN(CCNc1ccnc2cc(Cl)ccc12)CCNc1ccnc2cc(Cl)ccc12.Cl.Cl.Cl (library stock concentration (final ~1000-fold dilution): 10 mM)", "true"],
  ["CCS(=O)(=O)N1CCN(c2ccc(Nc3ncc(C(N)=O)c(NC4CC4)n3)cc2)CC1.Cl (library stock concentration (final ~1000-fold dilution): 10 mM)", "false"]
]}

# input Does NF-kB SEAP reporter activity meet or surpass 0.9 for CCCSc1nc(NC2CC2c2ccc(F)c(F)c2)c2nnn(C3CC(OCCO)C(O)C3O)c2n1 (stereo not given) (library stock concentration (final ~1000-fold dilution): 10 mM) ?
# output false

###

- Test system: RAW-Dual
- Test method notes: NF-kB SEAP reporter activity, fold change vs agonist alone; cytotoxicity flag (confluency mask): not cytotoxic; higher = enhanced NF-kB activity
- Details: agonist: Pam2CSK4 (TLR2/6) 0.1 ug/mL
Whole data set: some 2,900 compounds, median “NF-kB SEAP reporter activity, fold change vs agonist alone” near 0.99, cut for the highest 2% near 2.6. The list comes from a sample in which the highest values are over-represented; it also holds close analogues and randomly drawn compounds.
Property name: NF-kB SEAP reporter activity
Numbers only.

Use these answered entries as a reference point.
{"columns": ["Compound", "NF-kB SEAP reporter activity"],
 "data": [
  ["O=c1cc(N2CCOCC2)oc2c(-c3ccc4c(c3)OCCO4)csc12 (library stock concentration (final ~1000-fold dilution): 10 mM)", 0.957],
  ["O=C(O)CCc1c[nH]c2ccccc12 (library stock concentration (final ~1000-fold dilution): 10 mM)", 1.03],
  ["CN1CCN(S(=O)(=O)c2ccc(-c3cnc(N)c(C(=O)Nc4cccnc4)n3)cc2)CC1 (library stock concentration (final ~1000-fold dilution): 10 mM)", 1.11],
  ["CC(C)(C)C(=O)N1N=CCC1c1ccccc1 (stereo unspecified) (library stock concentration (final ~1000-fold dilution): 10 mM)", 0.983],
  ["CS(=O)(=O)c1ccc(-c2cnc(N)c(C(=O)Nc3ccccc3)n2)cc1 (library stock concentration (final ~1000-fold dilution): 10 mM)", 1.02]
]}

Quick one: give me NF-kB SEAP reporter activity for each item below, same order please.
1. CN1C2=C3N=c4ccccc4=C3CCN2C(=O)c2ccccc21 (library stock concentration (final ~1000-fold dilution): 10 mM)
2. CC1CCOC2Cn3cc(C(=O)NCc4ccc(F)cc4F)c(=O)c(O)c3C(=O)N12 (stereo unspecified) (library stock concentration (final ~1000-fold dilution): 10 mM)
3. O.S=c1nc[nH]c2nc[nH]c12 (library stock concentration (final ~1000-fold dilution): 10 mM)

# output
1: 0.824; 2: 1.09; 3: 0.594
